These measurements were taken from PubChem BioAssay AID430.

test: cytotoxicity in HPDE-C7 cells, cell-based, fluorescence, HTS (AID 430); settings: HPDE-C7 pancreatic duct cells viability, at 10 µM, active compounds read high;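 also: cells exposed to compound for 48 hours before viability readout; 0% = vehicle and 100% = reference cytotoxic drug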
Among all 63,000 compounds or so, about 1,100 (1.7%) were called active. The list comes from a sample in which actives are over-represented; it also holds close analogues and randomly drawn compounds. Results with a measured potency or affinity are listed apart.
parameter measured: cytotoxicity

Examples with their reported cytotoxicity follow.
{"molecule": "COc1ccc(CCNC(=O)CN2CCN(c3cccc(Cl)c3)CC2)cc1OC", "cytotoxicity": "1.7% (inactive)"}
{"molecule": "COc1ccc(CCNS(=O)(=O)c2cccc(S(=O)(=O)N3CCCC3)c2)cc1OC", "cytotoxicity": "-3.9% (inactive)"}
{"molecule": "CC1CCN(S(=O)(=O)c2ccc(NC(=O)c3cccs3)cc2)CC1", "cytotoxicity": "19.6% (inactive)"}
{"molecule": "CC1(C)COCN1S(=O)(=O)c1ccc(C(=O)Nc2nnc(-c3ccc(Cl)s3)o2)cc1", "cytotoxicity": "95.1% (active)"}
{"molecule": "ONC(=Nc1ccccc1)C(=Nc1ccccc1)NO", "cytotoxicity": "0.4% (inactive)"}

Measured cytotoxicity, CCOC(=O)CN(Cc1ccccc1)S(=O)(=O)c1ccc(NC(C)=O)cc1 : -2.7% (inactive)

cytotoxicity for CCOC(=O)c1ccc(NC(=O)N2CCN(S(C)(=O)=O)CC2)cc1 is -1.4% (inactive)

Given item CCC1CCCCN1S(=O)(=O)c1ccc(C(=O)Nc2nnc(-c3ccccc3Cl)o2)cc1 (stereo not drawn) , the value recorded as its cytotoxicity is 67.6% (active)

cytotoxicity reported for this molecule COc1ccccc1C(=O)N1CCN(C(=O)COc2cccc(C)c2)CC1 : -7.6% (inactive)

Form field cytotoxicity, entry COc1ccc(OC)c(-c2cc(C(=O)NCCCn3ccnc3)no2)c1 : 32.2% (inactive)

Kindly note the recorded cytotoxicity for COc1ccc(-n2c(Cc3cccn3C)nnc2SCC(=O)NCc2ccco2)cc1 , which is -5% (inactive)

cytotoxicity reading for Cc1ccc(NC(=O)CS(=O)CC(=O)Nc2cccc(C)c2C)cc1F (stereo not drawn) : -15.9% (inactive)
